biological target: TSPO (Rattus norvegicus, UniProt P16257); assay: TSPO radiometric binding assay, kidney lysate, displacement of [3H]PK11195; details: read-out: Kidney Ki
readout-name: Ki
Record the result as a number with its unit.

[[record]]
chemical_smiles = "CN(C)C(=O)Cc1nn(-c2ccccc2F)c(=O)c2c1c1ccc(Cl)cc1n2C"
test_value = "0.00118 nM"


Request: I have this compound here, `CN(C)C(=O)Cc1nn(-c2ccccn2)c(=O)c2c1c1ccc(Cl)cc1n2C` , and I need its recorded Ki.
Response: 6.8 nM

====

biological target: TSPO (Rattus norvegicus, UniProt P16257); experiment: Binding affinity to TSPO of fluorescent probes
The entries below come with measured Ki values attached.
Report the value in nM with no unit label.

[[record]]
compound = "CCc1cc(CC)n2nc(-c3ccc(OCCCCCCCCNC(=S)Nc4ccc5c(c4)C(=O)OC54c5ccc(O)cc5Oc5cc(O)ccc54)cc3)c(CC(=O)N(CC)CC)c2n1 [Compound 29]"
readout_name = "Ki"
test_value = 0.31

[[record]]
compound = "CCc1cc(CC)n2nc(-c3ccc(OCCCNC(=S)Nc4ccc5c(c4)C(=O)OC54c5ccc(O)cc5Oc5cc(O)ccc54)cc3)c(CC(=O)N(CC)CC)c2n1 [Compound 24]"
readout_name = "Ki"
test_value = 111


Now consider a different compound.
Request: Which measured Ki belongs to CCc1cc(CC)n2nc(-c3ccc(OCCCCCCCNC(=S)Nc4ccc5c(c4)C(=O)OC54c5ccc(O)cc5Oc5cc(O)ccc54)cc3)c(CC(=O)N(CC)CC)c2n1 [Compound 28] , tested on TSPO (Rattus norvegicus, UniProt P16257)?
Response: 16.3
